# Study target: IKZF2 (Homo sapiens (Human), UniProt Q96SW2+Q9UKS7)
# Sequence (Q9UKS7 whole entry): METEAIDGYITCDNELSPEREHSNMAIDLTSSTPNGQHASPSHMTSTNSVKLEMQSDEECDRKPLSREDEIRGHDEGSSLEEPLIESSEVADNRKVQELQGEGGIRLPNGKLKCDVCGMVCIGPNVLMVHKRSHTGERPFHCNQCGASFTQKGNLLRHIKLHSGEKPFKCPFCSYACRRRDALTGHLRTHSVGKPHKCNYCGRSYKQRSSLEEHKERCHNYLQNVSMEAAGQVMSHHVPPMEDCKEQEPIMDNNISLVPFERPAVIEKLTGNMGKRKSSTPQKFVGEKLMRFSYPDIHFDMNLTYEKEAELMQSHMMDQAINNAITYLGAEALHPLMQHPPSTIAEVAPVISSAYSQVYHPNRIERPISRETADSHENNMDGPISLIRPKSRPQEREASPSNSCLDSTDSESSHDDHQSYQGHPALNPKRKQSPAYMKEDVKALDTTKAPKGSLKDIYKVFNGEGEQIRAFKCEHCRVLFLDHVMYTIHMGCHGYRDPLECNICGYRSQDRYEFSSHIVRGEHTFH
# Sequence (Q96SW2 whole entry): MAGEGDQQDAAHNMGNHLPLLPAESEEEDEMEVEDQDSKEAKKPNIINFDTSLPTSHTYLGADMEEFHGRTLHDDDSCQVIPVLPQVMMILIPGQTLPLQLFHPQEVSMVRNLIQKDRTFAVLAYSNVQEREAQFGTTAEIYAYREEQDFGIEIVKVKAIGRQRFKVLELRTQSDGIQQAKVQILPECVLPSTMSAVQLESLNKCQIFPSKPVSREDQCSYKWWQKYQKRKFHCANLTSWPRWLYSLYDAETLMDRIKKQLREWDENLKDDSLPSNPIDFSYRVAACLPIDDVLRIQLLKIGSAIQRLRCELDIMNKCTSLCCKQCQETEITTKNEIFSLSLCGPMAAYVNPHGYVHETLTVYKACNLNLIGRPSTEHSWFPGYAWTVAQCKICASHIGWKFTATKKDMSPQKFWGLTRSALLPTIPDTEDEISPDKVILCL
# Sequence (Q16531 2-1140 partner): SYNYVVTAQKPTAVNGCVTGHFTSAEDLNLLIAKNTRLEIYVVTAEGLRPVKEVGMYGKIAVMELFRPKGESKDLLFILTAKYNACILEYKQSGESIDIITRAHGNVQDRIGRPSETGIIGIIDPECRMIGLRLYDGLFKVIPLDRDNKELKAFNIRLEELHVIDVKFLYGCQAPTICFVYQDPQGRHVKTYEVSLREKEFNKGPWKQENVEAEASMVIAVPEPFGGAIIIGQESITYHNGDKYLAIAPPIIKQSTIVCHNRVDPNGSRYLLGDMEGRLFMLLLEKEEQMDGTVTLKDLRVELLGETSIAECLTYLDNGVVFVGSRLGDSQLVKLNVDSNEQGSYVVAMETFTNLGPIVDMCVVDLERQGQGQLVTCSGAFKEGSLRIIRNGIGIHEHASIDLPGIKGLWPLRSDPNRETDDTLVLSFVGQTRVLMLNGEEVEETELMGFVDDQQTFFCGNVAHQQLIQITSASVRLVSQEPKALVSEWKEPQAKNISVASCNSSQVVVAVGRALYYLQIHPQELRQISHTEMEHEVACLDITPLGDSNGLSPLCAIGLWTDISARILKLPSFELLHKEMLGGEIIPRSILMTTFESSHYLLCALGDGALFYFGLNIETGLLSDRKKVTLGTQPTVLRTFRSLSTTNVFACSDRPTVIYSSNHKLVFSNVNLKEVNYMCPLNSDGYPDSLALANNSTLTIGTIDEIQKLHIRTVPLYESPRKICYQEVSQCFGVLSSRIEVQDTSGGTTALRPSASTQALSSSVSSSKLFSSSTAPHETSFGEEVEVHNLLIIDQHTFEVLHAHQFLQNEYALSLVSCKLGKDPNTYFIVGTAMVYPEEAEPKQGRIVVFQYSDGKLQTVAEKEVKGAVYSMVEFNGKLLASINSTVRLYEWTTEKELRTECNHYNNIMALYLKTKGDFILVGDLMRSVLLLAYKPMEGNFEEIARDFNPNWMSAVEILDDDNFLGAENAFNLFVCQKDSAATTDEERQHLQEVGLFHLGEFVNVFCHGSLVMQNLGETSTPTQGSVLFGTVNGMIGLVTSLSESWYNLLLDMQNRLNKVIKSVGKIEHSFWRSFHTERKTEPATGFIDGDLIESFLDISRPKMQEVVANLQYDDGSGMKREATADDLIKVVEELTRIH
# Protocol text: In vitro IKZF2 Western Blot Assay in Jurkat cells
# Type: cell-based
# Run parameters: 24 hrs, 10 μM, read-out: IKZF2 degradation (%) @ μM 10
Measured endpoint: inhibition at 10 µM

{"columns": ["Compound", "inhibition at 10 µM"],
 "data": [
  ["O=C1CCC(N2Cc3cc(-c4cc(CN5CCC(C(F)(F)F)CC5)cn5ccnc45)ccc3C2=O)C(=O)N1 (stereo not drawn) [Example 37]", "< 30%"],
  ["O=C1CCC(N2Cc3cc(-c4cc(CN5CCCC5c5ccccc5)cn5ccnc45)ccc3C2=O)C(=O)N1 (stereo not drawn) [Example 49]", "< 30%"],
  ["O=C1CCC(N2Cc3cc(-c4cc(CN5CCC(c6ccccc6)CC5)cn5ccnc45)ccc3C2=O)C(=O)N1 (stereo not drawn) [Example 47]", "< 30%"],
  ["O=C1CCC(N2Cc3cc(-c4cc(CNCCc5c(F)cccc5F)cn5ccnc45)ccc3C2=O)C(=O)N1 (stereo not drawn) [Example 39]", "< 30%"]
]}

Input line: Can you share its inhibition at 10 µM? I mean this compound: CC1(C)CCN(Cc2cc(-c3ccc4c(c3)CN(C3CCC(=O)NC3=O)C4=O)c3nccn3c2)CC1 (stereo not drawn) [Example 36]
Output line: < 30%

Input line: Can you share its inhibition at 10 µM? I mean this compound: CC(NCc1cc(-c2ccc3c(c2)CN(C2CCC(=O)NC2=O)C3=O)c2nccn2c1)c1ccccc1 (stereo not drawn) [Example 45]
Output line: < 30%

Input line: Can you share its inhibition at 10 µM? I mean this compound: O=C1CCC(N2Cc3cc(-c4cc(CN5CCCC5c5ccccc5)cc5cncn45)ccc3C2=O)C(=O)N1 (stereo not drawn) [Example 26]
Output line: 30 to 50%

Input line: Can you share its inhibition at 10 µM? I mean this compound: O=C1CCC(N2Cc3cc(-c4cc(CN5CCC5)cn5ccnc45)ccc3C2=O)C(=O)N1 (stereo not drawn) [Example 34]
Output line: > 50%

Input line: Can you share its inhibition at 10 µM? I mean this compound: O=C1CCC(N2Cc3cc(-c4cc(CNCCc5ccccc5Cl)cn5ccnc45)ccc3C2=O)C(=O)N1 (stereo not drawn) [Example 44]
Output line: 30 to 50%

Input line: Can you share its inhibition at 10 µM? I mean this compound: O=C1CCC(N2Cc3cc(-c4cc(CNCCc5c(Cl)cccc5Cl)cn5ccnc45)ccc3C2=O)C(=O)N1 (stereo not drawn) [Example 41]
Output line: < 30%

Input line: Can you share its inhibition at 10 µM? I mean this compound: O=C1CCC(N2Cc3cc(-c4cc(CN5CCC(F)(F)CC5)cn5ccnc45)ccc3C2=O)C(=O)N1 (stereo not drawn) [Example 35]
Output line: < 30%

Input line: Can you share its inhibition at 10 µM? I mean this compound: O=C1CCC(N2Cc3cc(-c4cc(CN5CC(c6ccccc6)C5)cn5ccnc45)ccc3C2=O)C(=O)N1 (stereo not drawn) [Example 48]
Output line: < 30%

====

# reported Dmax; entries follow
# Study target: IKZF1 (Homo sapiens (Human), UniProt Q13422+Q96SW2)
# Sequence (Q13422 whole entry): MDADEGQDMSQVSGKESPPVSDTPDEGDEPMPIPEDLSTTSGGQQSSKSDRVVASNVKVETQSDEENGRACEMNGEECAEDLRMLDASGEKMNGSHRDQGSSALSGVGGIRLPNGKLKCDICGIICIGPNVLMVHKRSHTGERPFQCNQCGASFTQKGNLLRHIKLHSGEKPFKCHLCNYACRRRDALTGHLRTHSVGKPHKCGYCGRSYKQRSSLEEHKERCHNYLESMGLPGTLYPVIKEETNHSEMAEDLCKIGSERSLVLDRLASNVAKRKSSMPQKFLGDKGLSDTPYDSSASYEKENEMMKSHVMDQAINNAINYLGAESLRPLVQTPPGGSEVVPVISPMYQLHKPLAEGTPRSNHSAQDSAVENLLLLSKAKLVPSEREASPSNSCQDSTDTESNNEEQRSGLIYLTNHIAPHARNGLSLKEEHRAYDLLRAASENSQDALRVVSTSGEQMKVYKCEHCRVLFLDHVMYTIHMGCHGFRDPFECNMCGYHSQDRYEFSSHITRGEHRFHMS
# Sequence (Q96SW2 whole entry): as the sequence (Q96SW2 whole entry) above
# Sequence (Q16531 2-1140 partner): as the sequence (Q16531 2-1140 partner) above
# Protocol text: In vitro IKZF1 HiBit Assay (HEK293T Flp-in-HiBiT-IKZF1 stable cell line)
# Type: cell-based
# Run parameters: HEK-293T; HEK293T Flp-in-HiBiT-IKZF1 stable cell line, 6 hrs incubation; read-out: IKZF1 HiBit Dmax (%)

{"columns": ["Molecule", "Study target", "Result"],
 "data": [
  ["CNC(=O)Cn1ccc2c(CN3CCCC3)cc(-c3ccc4c(c3)CN(C3CCC(=O)NC3=O)C4=O)nc21 (stereo not shown) [Example 150]", "IKZF1 (Homo sapiens (Human), UniProt Q13422+Q96SW2)", "< 20%"],
  ["Cc1cc(-c2ccc3c(c2)CN(C2CCC(=O)NC2=O)C3=O)nc2oc(CN3CCCC3)nc12 (stereo not shown) [Example 198]", "IKZF1 (Homo sapiens (Human), UniProt Q13422+Q96SW2)", "< 20%"],
  ["Cn1ccc2c(CN3CCC4(CCC4)CC3)cc(-c3ccc4c(c3)CN(C3CCC(=O)NC3=O)C4=O)nc21 (stereo not shown) [Example 69]", "IKZF1 (Homo sapiens (Human), UniProt Q13422+Q96SW2)", "20 to 40%"]
]}

As a next step, examine the molecule that follows.
Input line: Can you share its Dmax? I mean this molecule: Cc1nc2nc(-c3ccc4c(c3)CN(C3CCC(=O)NC3=O)C4=O)cc(CN3CCCC3)c2o1 (stereo not shown) [Example 194]
Output line: < 20%

Taken from patent US20250214991A1.
